Tested on: human red blood cells (hRBCs)
Assay: Haemoglobin release from human red blood cells
Type: cell-based
Settings: red cells of human
quantity: HC50 (50% haemoglobin leakage relative to 1% TritonX-100)

Reference set (4 entries):
CC(C)C[C@@H](NC(=O)[C@H](C)NC(=O)CNC(=O)[C@@H](NC=O)C(C)C)C(=O)N[C@@H](C)C(=O)N[C@@H](C(=O)N[C@H](C(=O)N[C@@H](C(=O)N[C@@H](Cc1c[nH]c2ccccc12)C(=O)N[C@H](CCCCN)C(=O)N[C@@H](Cc1c[nH]c2ccccc12)C(=O)N[C@H](CCCCN)C(=O)N[C@@H](Cc1c[nH]c2ccccc12)C(=O)N[C@H](CC(C)C)C(=O)N[C@@H](Cc1c[nH]c2ccccc12)C(=O)NCCO)C(C)C)C(C)C)C(C)C (racemic) | >100 µM
CC(C)C[C@@H](NC(=O)[C@H](C)NC(=O)CNC(=O)[C@@H](NC=O)C(C)C)C(=O)N[C@@H](C)C(=O)N[C@@H](C(=O)N[C@H](C(=O)N[C@@H](C(=O)N[C@@H](Cc1c[nH]c2ccccc12)C(=O)N[C@H](CCCCN)C(=O)N[C@@H](Cc1c[nH]c2ccccc12)C(=O)N[C@H](CC(C)C)C(=O)N[C@@H](Cc1c[nH]c2ccccc12)C(=O)N[C@H](CCCCN)C(=O)N[C@@H](Cc1c[nH]c2ccccc12)C(=O)NCCO)C(C)C)C(C)C)C(C)C (racemic) | >70 µM
CC(C)C[C@@H](NC(=O)[C@H](C)NC(=O)CNC(=O)[C@@H](NC=O)C(C)C)C(=O)N[C@@H](C)C(=O)N[C@@H](C(=O)N[C@H](C(=O)N[C@@H](C(=O)N[C@@H](Cc1c[nH]c2ccccc12)C(=O)N[C@H](CCCCN)C(=O)N[C@@H](Cc1c[nH]c2ccccc12)C(=O)N[C@H](CC(C)C)C(=O)N[C@@H](Cc1c[nH]c2ccccc12)C(=O)N[C@H](CC(C)C)C(=O)N[C@@H](Cc1c[nH]c2ccccc12)C(=O)NCCO)C(C)C)C(C)C)C(C)C (racemic) | 5~10 μM
CC(C)C[C@@H](NC(=O)[C@H](C)NC(=O)CNC(=O)[C@@H](NC=O)C(C)C)C(=O)N[C@@H](C)C(=O)N[C@@H](C(=O)N[C@H](C(=O)N[C@@H](C(=O)N[C@@H](Cc1c[nH]c2ccccc12)C(=O)N[C@H](CCCCN)C(=O)N[C@@H](Cc1c[nH]c2ccccc12)C(=O)N[C@H](CCCCN)C(=O)N[C@@H](Cc1c[nH]c2ccccc12)C(=O)N[C@H](CCCCN)C(=O)N[C@@H](Cc1c[nH]c2ccccc12)C(=O)NCCO)C(C)C)C(C)C)C(C)C (racemic) | >100 µM

Note: attention shifts to another entry.
// assay human red blood cells (hRBCs), entry CC(C)C[C@@H](NC(=O)[C@H](C)NC(=O)CNC(=O)[C@@H](NC=O)C(C)C)C(=O)N[C@@H](C)C(=O)N[C@@H](C(=O)N[C@H](C(=O)N[C@@H](C(=O)N[C@@H](Cc1c[nH]c2ccccc12)C(=O)N[C@H](CC(C)C)C(=O)N[C@@H](Cc1c[nH]c2ccccc12)C(=O)N[C@H](CC(C)C)C(=O)N[C@@H](Cc1c[nH]c2ccccc12)C(=O)N[C@H](CCCCN)C(=O)N[C@@H](Cc1c[nH]c2ccccc12)C(=O)NCCO)C(C)C)C(C)C)C(C)C (racemic) , HC50 (50% haemoglobin leakage relative to 1% TritonX-100) value = 5~10 μM
